system: HT29 colon; experiment: NCI tumour cell line growth inhibition, 48 h; in the data active means GI50 below about 0.43 µM; inactive means the rest
Your reply should match one of these outcome classes. active, inactive

Each compound tested received a call. Report the one for COc1ccc(C(=O)c2sc3nc(-c4ccccc4OC)ccc3c2N)cc1OC .
inactive

State the result this test recorded for CCOC(=O)c1ccc(NC(=O)NC2=NCCS2)cc1 .
inactive

What did the test return for COc1ccc2c(c1)C(=O)/C(=C/c1cccc(OCC(=O)Nc3nc(C)c(C)s3)c1)O2 ?
active

###

test system: OVCAR-3 ovarian; assay: NCI tumour cell line growth inhibition, 48 h
Answer each item with its documented TGI.

Give reported TGI for O=c1[nH]ncc2[nH]c3c4ccccc4ccc3c12 (OVCAR-3 ovarian)
> 100 µM

Give TGI for this entry on OVCAR-3 ovarian: O=C(Nc1cccc2[nH]c(C(F)(F)F)nc12)c1cc(Cl)ccc1Cl
10.3 µM

Lab note: OVCAR-3 ovarian assay, enter TGI for CC(C)(C)OC(=O)N1NC(c2ccccc2)CC1c1ccccc1 (stereo unspecified) here
> 100 µM

Look up OVCAR-3 ovarian data: TGI of CCC(=O)N/S(=N/S(=O)(=O)c1ccccc1)C(Cl)(Cl)Cl (stereo unspecified) , then report it.
> 100 µM

Supply TGI measured with OVCAR-3 ovarian for C1=Cc2nc1c(-c1ccccc1)c1ccc([nH]1)c(-c1ccccc1)c1nc(c(-c3ccccc3)c3ccc([nH]3)c2-c2ccccc2)C=C1 .
> 100 µM

For OVCAR-3 ovarian, give TGI of the listed molecule: C=C1C(=O)O[C@H]2[C@H]1CC/C(COC(=O)N[C@H]1C[C@H](O[C@H]3C[C@](O)(C(=O)CO)Cc4c(O)c5c(c(O)c43)C(=O)c3c(OC)cccc3C5=O)O[C@@H](C)[C@H]1O)=C\CC[C@@]1(C)O[C@@H]21
7.8 µM

Report its TGI with OVCAR-3 ovarian as the test system: N#Cc1c2ccc([N+](=O)[O-])cc2c(=O)n2c1[nH]c1ccc(C(F)(F)F)cc12
83.4 µM

Recall the reported TGI of COc1ccc(/C=C2\C[C@H]3[C@@H]4CCC5=C/C(=N/O)CC[C@]5(C)[C@H]4CC[C@]3(C)\C2=N\O)cc1 on OVCAR-3 ovarian and write it down.
> 100 µM

Param request: TGI | system OVCAR-3 ovarian | item CC(=O)O[C@H]1CC[C@@]2(C)C(=CC[C@@H]3[C@@H]2CC[C@]2(C)c4c(n[nH]c4C)C[C@@H]32)C1
26.2 µM

State recorded TGI with OVCAR-3 ovarian, entry Cc1cccc2[nH]c3c(c(O)cc4[nH]c5cccc(C)c5c(=O)c43)c(=O)c12 , no comment.
> 10 µM

State the measured TGI (OVCAR-3 ovarian) of CC1CC2(S(=O)(=O)c3ccccc3)ON1CC2S(=O)(=O)c1ccccc1 (stereo unspecified)
> 100 µM

###

system: HS 578T breast; assay: NCI tumour cell line growth inhibition, 48 h
Could you please report measured TGI for the items listed next?

Please report TGI for the following compound: CC12CCCCC1=C(F)C(F)(F)S2 (configuration not stated)
> 80.7 µM

State its TGI for this compound: Nc1ccc(-c2nc3ccc(F)cc3s2)cc1Cl
> 100 µM

Give me measured TGI, please, for this compound: Cn1c(=Nc2ccc(Cl)cc2)sc2ccccc21
> 100 µM

State, in one line, measured TGI of CC12CC(=O)Nc3ccccc3N1C(c1ccccc1)=NO2 (configuration not stated)
> 100 µM

Assign TGI to the following record: CC(=O)C(C(=O)c1ccc(C)cc1)[C@H]1OC(C)(C)O[C@H]1[C@H]1COC(C)(C)O1 (some centres not stated)
> 50 µM

For Nc1[nH]c(=O)nc2snnc12 , write its TGI.
> 100 µM

// Input: COc1ccc(-c2c(-c3ccccc3)c(C)c3ccccn23)cc1 . Output its TGI only.
> 100 µM

###

Please provide measured TGI for the entries that follow.
system: RXF 393 renal; assay: NCI tumour cell line growth inhibition, 48 h

Input c1ccc2c(c1)c1ccccc1n2Cn1c2ccccc2c2ccccc21 , output reported TGI.
> 100 µM

Specify TGI for Cc1cccc2[nH]c3c(c(O)cc4[nH]c5cccc(C)c5c(=O)c43)c(=O)c12 and stop.
> 10 µM

Report TGI, nothing else, for this compound: OC1=CN=COc2ccccc21
> 100 µM

Give recorded TGI. O=c1[nH]nc(-c2ccccc2)n1/N=C/c1ccccc1O
> 100 µM

Complete the entry with TGI for O=C1CCC2(c3ccccc3)Nc3ccccc3N12 (stereo not given)
> 100 µM

###

tested on: MDA-MB-231 breast; test: NCI tumour cell line growth inhibition, 48 h
attributeMeasured: TGI

Identify measured TGI obtained with MDA-MB-231 breast for O=C(c1cccs1)c1nccc2c1cnc1ccccc12 .
> 100 µM

Enter measured TGI, system MDA-MB-231 breast, for the molecule shown: CCOC(=O)c1ccc(NC(=O)NC2=NCCS2)cc1
> 100 µM

Identify measured TGI obtained with MDA-MB-231 breast for O=[N+]([O-])c1cc([As](Br)c2ccc(O)c([N+](=O)[O-])c2)ccc1O .
3.11 µM

Lab note: MDA-MB-231 breast assay, enter TGI for Clc1ccc2c(NCCCCN3OC3c3ccccc3)ccnc2c1 (stereo not given) here
5.92 µM

# return TGI of COc1cc(OC)c2sc(-c3ccc(-n4cncc4-c4ccc(OC)c(OC)c4)cc3)nc2c1 (system: MDA-MB-231 breast)
> 100 µM

###

Please respond with reported TGI for every item in the list.
test system: HL-60(TB) leukemia; assay: NCI tumour cell line growth inhibition, 48 h
Form entry: value (µM) — number only.

Provide TGI, system HL-60(TB) leukemia, entry CC1(C)OCC(C2OC3OC(C)(C)OC3C2c2ccccc2)O1 (stereo not drawn)
50

Param request: TGI | system HL-60(TB) leukemia | item CCOC(=O)C(=CNc1ccc(N(C2=NCC(C)S2)c2ccc(F)c(Cl)c2)cc1)C(=O)OCC (stereo not drawn)
52.9

Report TGI under test system HL-60(TB) leukemia for CCSc1ccc([C@@H]2[C@@H](O)C(=O)N2c2cc(OC)c(OC)c(OC)c2)cc1 .
0.0367

Write down the reported TGI (system: HL-60(TB) leukemia) of COc1ccc2c(c1)CN([C@@H](C)[C@H]1CC[C@H]3[C@@H]4CC[C@H]5C[C@@H](O)CC[C@]5(C)[C@H]4CC[C@]13C)CO2
5.91

Consider the compound Cc1cn(-c2cccc(NC(=O)c3ccc(C)c(Nc4nccc(-c5cccnc5)n4)c3)c2)cn1 tested on HL-60(TB) leukemia; state its TGI.
19.8

Give measured TGI for Clc1ccc2c(NCCCCN3OC3c3ccccc3)ccnc2c1 (stereo not drawn) (HL-60(TB) leukemia).
2.63

Answer with TGI of c1cc2c3c(c1)c1cc4c(cc1c[n+]3CC2)OCO4 measured for HL-60(TB) leukemia.
24.7

State recorded TGI with HL-60(TB) leukemia, entry COc1ccc(C2=[S+]C(c3ccccc3)(c3ccccc3)c3ccccc32)cc1 , no comment.
51.1

Supply TGI measured with HL-60(TB) leukemia for O=C(N=Nc1ccc(Cl)cc1Cl)NNc1ccc(Cl)cc1Cl .
49.8

Give the observed TGI of Cc1cc(NCc2cc(Nc3ccnc4cc(Cl)ccc34)ccc2F)nc(N2CCOCC2)n1 for HL-60(TB) leukemia.
3.82

Find TGI for CCC(C)C(N)C(=O)N/N=C\c1c2c(nc3ccccc13)-c1cc3c(c(=O)n1C2)COC(=O)[C@]3(O)CC (stereo partly drawn) on HL-60(TB) leukemia and write it down.
0.68

###

Record form. Attribute: TGI. Fill in for each entry.
system: HOP-62 NSCLC; experiment: NCI tumour cell line growth inhibition, 48 h

Supply reported TGI belonging to this compound: O=C(N=Nc1ccc(Cl)cc1Cl)NNc1ccc(Cl)cc1Cl
18.6 µM

Identify measured TGI corresponding to CC12CC(=O)Nc3ccccc3N1C(c1ccccc1)=NO2 (stereo not drawn)
> 100 µM

Give the reported value of TGI for this record: Cc1ccc(S(=O)C[C@](NC(=O)OCc2ccccc2)(Sc2ccccc2)C(F)F)cc1 (stereo partly drawn)
86.9 µM

Retrieve TGI measured for N#Cc1c(Cl)c2cccnc2n2c1nc1ccccc12 and print it.
> 56.1 µM

Specify measured TGI for O=c1nc2ccc([N+](=O)[O-])cc2[n+]([O-])[nH]1 .
> 100 µM

Please supply the value of reported TGI for the item O=[N+]([O-])C(/C(Cl)=C(\Cl)Br)=C(/Cl)SCc1ccccc1
37.5 µM

Query TGI for ClCc1cccc(Cn2cnc3c(Cl)nc(Cl)nc32)c1
4.38 µM

Return TGI for the following compound: C1=Cc2nc1c(-c1ccccc1)c1ccc([nH]1)c(-c1ccccc1)c1nc(c(-c3ccccc3)c3ccc([nH]3)c2-c2ccccc2)C=C1
> 100 µM

Please look at this compound and report its TGI: C=C1C(=O)C23[C@H](O)C1CC[C@H]2[C@]12COC3(O)[C@@H](O)[C@@H]1C(C)(C)CC[C@@H]2O
36.1 µM

Given the compound COc1ccc2c(c1)CN([C@@H](C)[C@H]1CC[C@H]3[C@@H]4CC[C@H]5C[C@@H](O)CC[C@]5(C)[C@H]4CC[C@]13C)CO2 , write its reported TGI.
4 µM

Provide one value: measured TGI of COc1ccc2oc(S(=O)(=O)N3CC(CCl)c4ccc(N)cc43)cc2c1 (stereo not drawn)
> 100 µM

Fill in TGI for record CCn1cc(/C=C2\Oc3cc(OCC#N)ccc3C2=O)c2cc(OC)ccc21
> 46.6 µM

Please list TGI recorded for the compound O=[N+]([O-])c1ccc(C2ON=C(c3ccccc3)N2C23CC4CC(CC(C4)C2)C3)cc1 (stereo not drawn)
> 10 µM

Tell me its TGI given CC1(C)OCC(C2OC3OC(C)(C)OC3C2c2ccccc2)O1 (stereo not drawn) as the entry.
> 100 µM

Give the reported value of TGI for this record: O=Cc1ccc(OC[C@H]2COC(=O)N2)cc1
> 100 µM

Consider the compound CC1CN=C(Nc2cccc(F)c2)S1 (stereo not drawn) and give its recorded TGI.
> 100 µM

Hello, please tell me recorded TGI for this one: COc1ccc(-c2c(-c3ccccc3)c(C)c3ccccn23)cc1
> 100 µM

Respond only with TGI recorded for O=C1CCC2(c3ccccc3)Nc3ccccc3N12 (stereo not drawn)
> 100 µM

Please report TGI for the following compound: CCOC(=O)C(=CNc1ccc(N(C2=NCC(C)S2)c2ccc(F)c(Cl)c2)cc1)C(=O)OCC (stereo not drawn)
52 µM

Specify TGI for c1ccc2c(c1)c1ccccc1n2Cn1c2ccccc2c2ccccc21 and stop.
> 100 µM

Could you please provide reported TGI for COc1cc(OCc2cccc(-c3ccccc3)c2C)cc(OC)c1CN1CCCCC1C(=O)NCCOCCOCCN (stereo not drawn) ? Thanks!
6.06 µM

Please report TGI for the following compound: Cc1cc(CCl)c(C)cc1CCl
3.79 µM

Give recorded TGI. COc1ccc(O)c(C(=O)CCC(=O)O)c1
> 10 µM

Indicate its recorded TGI; the compound in question is N=c1oc2ccccc2cc1-c1nc2ccccc2[nH]1
> 100 µM

Determine from records and report TGI for NC(=O)CSc1c2cc(O)ccc2nc2ccc(O)cc12
> 10 µM

Dear colleague, please send me the reported TGI for c1ccc2cc3c(NC4=NCCO4)cccc3cc2c1 when you can.
> 100 µM

Hello, please tell me recorded TGI for this one: O=C(c1cccs1)c1nccc2c1cnc1ccccc12
> 100 µM

Quickly give me recorded TGI for CC(=O)OC(C(=O)[O][Sn]([CH3])([CH3])[CH3])c1ccccc1 (stereo not drawn)
> 100 µM

Retrieve TGI measured for COC(=O)C1Cc2c(OC)ccc(OC)c2C(O)C1C(=O)OC (stereo not drawn) and print it.
> 100 µM

Return value of TGI for input CC(O)c1cc2c(s1)C(=O)c1c(C(C)O)csc1C2=O (stereo not drawn) , no commentary.
0.439 µM

State, in one line, measured TGI of C=C1C[C@@H](O)[C@@H](Br)C(C)(C)[C@@]12C=CC(=O)CC2
> 100 µM

Give TGI for CCSc1ccc([C@@H]2[C@@H](O)C(=O)N2c2cc(OC)c(OC)c(OC)c2)cc1
32.5 µM

Could you please provide reported TGI for C#CCN(N=O)C(=O)ON1C(=O)CCC1=O ? Thanks!
> 100 µM

These entries and their values trace back to PubChem BioAssay (NCI).
